# System: HCT-15
# assayComment: Cytotoxicity against human HCT15 cells
# Type: functional
# conditions: read-out: ED50 (the source's name)
observable: EC50 (µg/mL)
State just the number; it will be interpreted in µg/mL.

Task: Lab note: record EC50 of C=CCCCCCC#CC#CCO [MONTIPORYNE G] tested on HCT-15.
Output: 12.9

Task: Lab note: record EC50 of CCCCCCCC#CC#CC(O)CC(C)=O (racemic) [MONTIPORYNE I] tested on HCT-15.
Output: 3.73

---

# System: HCT-15
# assayComment: Cytotoxicity against human HCT15 cells
# Type: functional
# conditions: read-out: ED50 (the source's name)
observable: EC50 (µg/mL)
State just the number; it will be interpreted in µg/mL.

compound: C=CCCCCCC#CC#C/C=C/C(C)=O
EC50 / µg/mL: 4.56
//
compound: C=CCCCCCCCC#CC#CC(O)CC(C)=O (racemic)
EC50 / µg/mL: 4.18
//
compound: C=CCCCCCCCC#CC#CCO
EC50 / µg/mL: 3.32

Task: Please give the documented EC50 of C=CCCCCCC#CC#C/C=C\C(C)=O
Output: 11.3

Task: Please give the documented EC50 of CCCCCCCC#CC#CCO
Output: 5.9

Task: Please give the documented EC50 of CCCCCCCC#CC#CCOCC(=O)[O-].[Na+] [MONTIPORIC ACID A SODIUM SALT]
Output: 8.3

Task: Please give the documented EC50 of COc1cccc2c1C(=O)c1c(O)c3c(c(O)c1C2=O)C[C@@](O)(C(=O)CO)C[C@@H]3O[C@H]1C[C@H](N)[C@H](O)[C@H](C)O1
Output: 0.04

Task: Please give the documented EC50 of C=CCCCCCCCC#CC#CCOCC(=O)[O-].[Na+]
Output: 4.47

Task: Please give the documented EC50 of C=CCCCCCC#CC#CC(O)CC(C)=O (racemic)
Output: 3.42

Task: Please give the documented EC50 of C=CCCCCCC#CC#CCOCCO
Output: 24.1

Task: Please give the documented EC50 of CCCCCCCC#CC#CCOCC(=O)OC [METHYLMONTIPORATE A]
Output: 25.6
